Target: Adenosine receptor A3 (Homo sapiens, UniProt P0DMS8, T94E)
Sequence (P0DMS8 whole entry T94E): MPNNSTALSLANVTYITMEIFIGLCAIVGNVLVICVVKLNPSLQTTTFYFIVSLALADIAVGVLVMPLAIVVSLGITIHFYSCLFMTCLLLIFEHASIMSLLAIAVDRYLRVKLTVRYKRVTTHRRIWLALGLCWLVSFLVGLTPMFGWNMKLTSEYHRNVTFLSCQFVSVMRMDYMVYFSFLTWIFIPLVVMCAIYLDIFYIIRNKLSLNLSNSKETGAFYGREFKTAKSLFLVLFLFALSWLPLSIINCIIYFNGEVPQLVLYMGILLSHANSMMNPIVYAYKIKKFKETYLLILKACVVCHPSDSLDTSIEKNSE
Assay: Displacement of [125I]I-AB-MECA from human adenosine A3 receptor T94E mutant expressed in COS7 cells
Form field: pKi (one value per entry).
// returns pKi (minus log10 of molar concentration), number only

CHEM SMILES	pKi
CNC(=O)[C@H]1O[C@@H](n2cnc3c(NCc4cc(Cl)ccc4OC)ncnc32)[C@H](O)[C@@H]1CN	6.07

Could you now consider this next compound?
Quick one: pKi for NC[C@H]1[C@@H](O)[C@H](n2cnc3c(NCc4cccc(I)c4)ncnc32)O[C@@H]1CO ?
5.00

###

Target: Adenosine receptor A3 (Homo sapiens, UniProt P0DMS8, H272E)
Sequence (P0DMS8 whole entry H272E): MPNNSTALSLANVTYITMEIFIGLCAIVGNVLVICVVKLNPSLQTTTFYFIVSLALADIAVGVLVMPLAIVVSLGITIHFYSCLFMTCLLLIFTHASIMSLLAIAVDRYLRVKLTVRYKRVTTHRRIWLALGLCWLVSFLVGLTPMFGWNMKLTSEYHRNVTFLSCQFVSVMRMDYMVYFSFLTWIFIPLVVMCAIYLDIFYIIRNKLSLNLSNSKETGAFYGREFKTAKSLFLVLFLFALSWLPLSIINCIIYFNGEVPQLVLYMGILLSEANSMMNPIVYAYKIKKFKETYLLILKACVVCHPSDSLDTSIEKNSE
Assay: Displacement of [125I]I-AB-MECA from human adenosine A3 receptor H272E mutant expressed in COS7 cells
QUANTITY MEASURED: pKi
// returns pKi (minus log10 of molar concentration), number only

CHEM SMILES	QUANTITY MEASURED	NUMERIC READOUT
NC(=O)N[C@H]1[C@@H](O)[C@H](n2cnc3c(NCc4cccc(I)c4)ncnc32)O[C@@H]1CO	pKi	6.66

Could you now consider this next compound?
Quick one: pKi for NC[C@H]1[C@@H](O)[C@H](n2cnc3c(NCc4cccc(I)c4)ncnc32)O[C@@H]1CO ?
6.21

###

Biological target: Adenosine receptor A1 (Homo sapiens) (UniProt P30542)
Sequence (P30542 whole entry): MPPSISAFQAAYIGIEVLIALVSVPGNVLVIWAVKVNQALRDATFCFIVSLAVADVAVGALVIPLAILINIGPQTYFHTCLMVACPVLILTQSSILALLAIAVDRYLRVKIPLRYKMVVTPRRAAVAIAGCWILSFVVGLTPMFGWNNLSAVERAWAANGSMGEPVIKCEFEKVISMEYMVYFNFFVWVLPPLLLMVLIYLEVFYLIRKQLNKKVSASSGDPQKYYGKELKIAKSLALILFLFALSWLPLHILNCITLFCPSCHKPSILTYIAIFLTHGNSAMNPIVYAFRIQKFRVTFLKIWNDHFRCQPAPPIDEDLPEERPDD
Test: Inhibition of human adenosine A1 receptor expressed in CHO cells at 10 uM
Type: cell-based
QUANTITY MEASURED: inhibition

# count of solved cases: 4
CHEM SMILES	inhibition
NC(=O)N[C@H]1[C@@H](O)[C@H](n2cnc3c(NCc4cccc(I)c4)nc(Cl)nc32)O[C@@H]1CO	34%
CNc1ncnc2c1ncn2[C@@H]1O[C@H](CO)[C@@H](NC(N)=O)[C@H]1O	< 10%
CNC(=O)[C@H]1O[C@@H](n2cnc3c(NCc4cccc(I)c4)ncnc32)[C@H](O)[C@@H]1NC(N)=O	< 10%
NC(=O)N[C@H]1[C@@H](O)[C@H](n2cnc3c(NCc4cccc(I)c4)ncnc32)O[C@@H]1CO	< 10%

Could you now consider this next compound?
Quick one: inhibition for CNC(=O)[C@H]1O[C@@H](n2cnc3c(NC)ncnc32)[C@H](O)[C@@H]1NC(N)=O ?
< 10%

###

Form field: pKi (one value per entry).
Molecular target: Adenosine receptor A3 (Homo sapiens, UniProt P0DMS8, H272E)
Experiment: Displacement of [125I]I-AB-MECA from human adenosine A3 receptor H272E mutant expressed in COS7 cells
// returns pKi (minus log10 of molar concentration), number only

# count of solved cases: 5
CHEM SMILES	ASSAY TARGET	pKi
NC(=O)N[C@H]1[C@@H](O)[C@H](n2cnc3c(NCc4cccc(I)c4)nc(Cl)nc32)O[C@@H]1CO	Adenosine receptor A3 (Homo sapiens, UniProt P0DMS8, H272E)	6.70
CNC(=O)[C@H]1O[C@@H](n2cnc3c(NCc4cccc(I)c4)ncnc32)[C@H](O)[C@@H]1N=[N+]=[N-]	Adenosine receptor A3 (Homo sapiens, UniProt P0DMS8, H272E)	6.73
COc1ccc(Cl)cc1CNc1ncnc2c1ncn2[C@@H]1O[C@H](CO)[C@@H](CN)[C@H]1O	Adenosine receptor A3 (Homo sapiens, UniProt P0DMS8, H272E)	6.15
CNC(=O)[C@H]1O[C@@H](n2cnc3c(NCc4cccc(I)c4)ncnc32)[C@H](O)[C@@H]1NC(N)=O	Adenosine receptor A3 (Homo sapiens, UniProt P0DMS8, H272E)	5.57
CNC(=O)[C@H]1O[C@@H](n2cnc3c(NCc4cccc(I)c4)ncnc32)[C@H](O)[C@@H]1CN	Adenosine receptor A3 (Homo sapiens, UniProt P0DMS8, H272E)	6.73

Could you now consider this next molecule?
Quick one: pKi for CC(=O)NC[C@H]1[C@@H](O)[C@H](n2cnc3c(NCc4cccc(I)c4)ncnc32)O[C@@H]1CO ?
6.15

meta.source: ChEMBL document CHEMBL1147643
